- system_tested: T1, mouse MAdCAM expressed on cells (mouse, UniProt Q61826 22-405)
- T1 construct: whole, on cells
- T1 sequence (looked up): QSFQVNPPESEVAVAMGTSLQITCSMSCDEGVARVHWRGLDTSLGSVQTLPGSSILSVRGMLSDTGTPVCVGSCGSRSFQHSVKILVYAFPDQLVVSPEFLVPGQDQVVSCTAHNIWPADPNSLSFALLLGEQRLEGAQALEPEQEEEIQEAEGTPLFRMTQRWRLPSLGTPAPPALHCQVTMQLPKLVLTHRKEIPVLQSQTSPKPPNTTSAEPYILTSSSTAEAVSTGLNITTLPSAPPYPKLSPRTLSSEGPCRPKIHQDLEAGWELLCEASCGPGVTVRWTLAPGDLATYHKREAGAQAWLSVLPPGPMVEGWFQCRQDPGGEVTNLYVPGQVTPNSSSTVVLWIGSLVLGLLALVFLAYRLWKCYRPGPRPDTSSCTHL
- procedure_summary: cell binding

{"binder": "MAdCAM antibody Table 1 clone 49 (scFv) scFv: QVQLVQSGAEVKKPGASVKVSCKASGDTFTGYYIHWVRQAPGQGLEWMGWINPNSGGTNYAQKFQGRVTMTRDTSTSTVYMELSSLRSEDTAVYYCARSGLWLGSYYGMDVWGQGTLVTVSSGGGGSGGGGSGGGGSGGGGSDIQMTQSPSSLSASVGDRVTITCRASQTISIWLAWYQQKPGKAPKLLIYDASTLQSGVPSRFSGSGSGTDFTLTISSLQPEDFATYYCQQYSSYPLTFGQGTKVEIK", "binding result": "no binding"}
{"binder": "MAdCAM antibody Table 1 clone 6 (scFv) scFv: EVQLLESGGGLVQPGGSLRLSCAASGFTFNNYAFHWVRQAPGKGLEWVSRINSYGTSTTYADSVKGRFTISRDNSKNTLYLQMNSLRAEDTAVYYCAREGPVAGYWYFDLWGQGTLVTVSSGGGGSGGGGSGGGGSGGGGSDIQMTQSPSSLSASVGDRVTITCRASQIIGTNLAWYQQKPGKAPKLLIYGASSLQSGVPSRFSGSGSGTDFTLTISSLQPEDFATYYCQQSYRLPFTFGQGTKVEIK", "binding result": "no binding"}
{"binder": "MAdCAM antibody Table 1 clone 11 (scFv) scFv: QVQLVQSGAEVKKPGASVKVSCKASGYTFTTYYMHWVRQAPGQGLEWMGGFDPEDGETIYAQKFQGRVTMTRDTSTSTVYMELSSLRSEDTAVYYCARHAVAGAVGAGYYYYGMDVWGQGTMVTVSSGGGGSGGGGSGGGGSGGGGSDIQMTQSPSSLSASVGDRVTITCRASESISNWLAWYQQKPGKAPKLLIYAASTLQSGVPSRFSGSGSGTDFTLTISSLQPEDFATYYCQQSYSVPFTFGPGTKVDIK", "binding result": "no binding"}

Source of measurements: patent US20230235004A1
